Below, each entry is listed alongside its reported pKa.
experiment: physchem
Description: Dissociation constant, pKa by potentiometric titration
// return a plain number; no unit text

For the molecule "CC1=NN(c2ccc(OCc3no[n+]([O-])c3C(N)=O)cc2)C(=O)C1" , what pKa is on record?
7.08

Name the reported pKa value associated with the molecule "CC1=NN(c2ccc(OCCCO[N+](=O)[O-])cc2)C(=O)C1"
7.11

What pKa value was documented for this molecule, "COc1ccc(N2N=C(C)CC2=O)cc1" ?
7.06

// returns reported pKa for input CC1=NN(c2ccc(OCCCCC(CO[N+](=O)[O-])O[N+](=O)[O-])cc2)C(=O)C1 (stereo not drawn)
7.15

Which pKa is reported for this molecule? "CC1=NN(c2ccc(OCCCOc3no[n+]([O-])c3S(=O)(=O)c3ccccc3)cc2)C(=O)C1"
7.12

***
Would you mind telling me what pKa value was observed for "CC1=NN(c2ccc(OCCCCCCO[N+](=O)[O-])cc2)C(=O)C1" ?
7.12

# lookup: pKa of CC1=NN(c2ccccc2)C(=O)C1 [EDARAVONE]
6.9

Please report the recorded pKa for "CC1=NN(c2ccc(OCc3no[n+]([O-])c3C#N)cc2)C(=O)C1" .
7.06

Values compiled from ChEMBL document CHEMBL1139380.
